Source of measurements: patent US20090170762A1

- Test system: BRIN-BD11 cells
- Procedure summary: Insulin secretion from BRIN-BD11 cells
- Assay type: cell-based
- Measurement context: in presence of GIP (10^-7 m)
Ends that are not written are not given here.
Observable: effect on GIP-stimulated insulin secretion

{"Biopolymer sequence": "YAPGTFISDYSIAMDKIHQQDFVNWLLAQKGKKNDWKHNITQ [(Pro^3)GIP]", "Observed result": "significantly inhibited"}
{"Biopolymer sequence": "YAKGTFISDYSIAMDKIHQQDFVNWLLAQKGKKNDWKHNITQ [(Lys^3)GIP]", "Observed result": "significantly inhibited"}
{"Biopolymer sequence": "YAFGTFISDYSIAMDKIHQQDFVNWLLAQKGKKNDWKHNITQ [(Phe^3)GIP]", "Observed result": "significantly inhibited"}

====

- Test system: DPP-IV (Homo sapiens)
- Sequence (P27487 whole entry, species assumed): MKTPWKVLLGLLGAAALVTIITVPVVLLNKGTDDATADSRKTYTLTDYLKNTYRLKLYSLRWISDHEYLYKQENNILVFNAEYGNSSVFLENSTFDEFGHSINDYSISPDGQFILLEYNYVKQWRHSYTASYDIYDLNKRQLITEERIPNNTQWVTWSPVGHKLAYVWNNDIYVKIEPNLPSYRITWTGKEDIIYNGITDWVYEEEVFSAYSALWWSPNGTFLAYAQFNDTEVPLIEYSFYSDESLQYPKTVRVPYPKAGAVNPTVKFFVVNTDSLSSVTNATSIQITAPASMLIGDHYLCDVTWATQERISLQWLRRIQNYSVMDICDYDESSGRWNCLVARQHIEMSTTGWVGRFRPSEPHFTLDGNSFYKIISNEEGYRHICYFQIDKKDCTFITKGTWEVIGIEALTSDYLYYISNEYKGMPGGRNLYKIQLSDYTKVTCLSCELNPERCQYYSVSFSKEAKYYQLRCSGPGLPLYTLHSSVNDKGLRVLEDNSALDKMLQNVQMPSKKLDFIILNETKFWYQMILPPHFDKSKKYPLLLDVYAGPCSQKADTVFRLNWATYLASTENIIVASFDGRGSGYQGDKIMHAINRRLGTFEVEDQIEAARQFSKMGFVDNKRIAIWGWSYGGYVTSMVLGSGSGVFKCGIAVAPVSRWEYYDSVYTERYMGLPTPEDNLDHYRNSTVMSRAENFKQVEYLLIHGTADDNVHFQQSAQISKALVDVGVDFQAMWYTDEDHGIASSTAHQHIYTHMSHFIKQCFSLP
- Procedure summary: Degradation of GIP and Glu3-substituted GIP analogs by DPP-IV (HPLC)
- Format: in vitro ADME
- Measurement context: isolated DPP-IV enzyme (5 mU); incubation with DPP-IV (5 mU), 37°C, pH 7.8, 2 hrs; read-out: Intact Peptide Remaining (%) 2 hrs.
Square brackets hold non-standard residues; d marks the D form. Ends that are not written are not given here. * marks the point of attachment. Palmitoyl = CCCCCCCCCCCCCCCC(=O)*; Hyp = O=C(O)[C@@H]1C[C@@H](O)CN1
Observable: remaining at 2 h, 2 μm (%)

{"Substance": "YAWGTFISDYSIAMDKIHQQDFVNWLLAQKGKKNDWKHNITQ [(Trp^3)GIP]", "Test system": "DPP-IV (Homo sapiens)", "Observed result": 22.5}
{"Substance": "YAAGTFISDYSIAMDKIHQQDFVNWLLAQKGKKNDWKHNITQ [(Ala^3)GIP]", "Test system": "DPP-IV (Homo sapiens)", "Observed result": 5.9}
{"Substance": "YAFGTFISDYSIAMDKIHQQDFVNWLLAQKGKKNDWKHNITQ [(Phe^3)GIP]", "Test system": "DPP-IV (Homo sapiens)", "Observed result": 15}
{"Substance": "YAPGTFISDYSIAMDKIHQQDFVNWLLAQKGKKNDWKHNITQ [(Pro^3)GIP]", "Test system": "DPP-IV (Homo sapiens)", "Observed result": 100}
{"Substance": "YAKGTFISDYSIAMDKIHQQDFVNWLLAQKGKKNDWKHNITQ [(Lys^3)GIP]", "Test system": "DPP-IV (Homo sapiens)", "Observed result": 41.4}
{"Substance": "YAPGTFISDYSIAMDK(Palmitoyl)IHQQDFVNWLLAQKGKKNDWKHNITQ [(Pro^3)LysPAL^16GIP]", "Test system": "DPP-IV (Homo sapiens)", "Observed result": 100}
{"Substance": "YA[Hyp]GTFISDYSIAMDKIHQQDFVNWLLAQKGKKNDWKHNITQ [(Hyp^3)GIP]", "Test system": "DPP-IV (Homo sapiens)", "Observed result": 100}
{"Substance": "YAYGTFISDYSIAMDKIHQQDFVNWLLAQKGKKNDWKHNITQ [(Tyr^3)GIP]", "Test system": "DPP-IV (Homo sapiens)", "Observed result": 34.1}
{"Substance": "YA[Hyp]GTFISDYSIAMDK(Palmitoyl)IHQQDFVNWLLAQKGKKNDWKHNITQ [(Hyp^3)LysPAL^16GIP]", "Test system": "DPP-IV (Homo sapiens)", "Observed result": 100}
